tested on: T1, full-length beta-catenin (UniProt P35222 2-781, limits assumed)
T1 construct: mature; also called full-length ß-Catenin; β-catenin
T1 sequence (looked up): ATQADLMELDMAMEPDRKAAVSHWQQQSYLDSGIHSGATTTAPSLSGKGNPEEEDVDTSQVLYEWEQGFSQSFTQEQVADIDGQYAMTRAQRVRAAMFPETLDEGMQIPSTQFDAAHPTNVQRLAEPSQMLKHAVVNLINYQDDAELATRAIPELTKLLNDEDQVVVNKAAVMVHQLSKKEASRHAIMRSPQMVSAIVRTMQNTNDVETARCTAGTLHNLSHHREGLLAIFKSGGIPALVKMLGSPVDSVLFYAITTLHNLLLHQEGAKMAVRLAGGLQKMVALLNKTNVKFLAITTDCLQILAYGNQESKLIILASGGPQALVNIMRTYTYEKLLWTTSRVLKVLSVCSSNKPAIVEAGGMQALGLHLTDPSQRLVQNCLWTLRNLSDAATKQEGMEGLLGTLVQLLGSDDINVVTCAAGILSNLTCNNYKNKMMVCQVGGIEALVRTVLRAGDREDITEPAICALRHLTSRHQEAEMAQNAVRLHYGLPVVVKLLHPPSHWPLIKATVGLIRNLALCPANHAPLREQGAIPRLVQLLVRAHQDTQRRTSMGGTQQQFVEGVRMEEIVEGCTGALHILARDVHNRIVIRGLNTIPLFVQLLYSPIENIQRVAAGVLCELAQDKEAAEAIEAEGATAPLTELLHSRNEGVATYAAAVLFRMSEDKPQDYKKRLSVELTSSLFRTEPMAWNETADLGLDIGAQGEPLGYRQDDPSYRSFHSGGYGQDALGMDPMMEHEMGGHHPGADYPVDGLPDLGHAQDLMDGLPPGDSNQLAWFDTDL
test protocol: competition FP, grade of FP EC50 (+: 500-5000 nM)
Bridge positions count the residues as written; N and C are the ends. Square brackets hold non-standard residues; d marks the D form. Primed or numbered codes have the meaning given here. MB(5) = Monomer B (PyrS), N-Alloc pyrrolidine stapling residue; MA = Monomer A (Az), N-Alloc azetidine stapling residue; Met(O2) = CS(=O)(=O)CC[C@H](N)C(=O)O; R8 = C=CCCCCCC[C@@](C)(N)C(=O)O; S5 = C=CCCC[C@](C)(N)C(=O)O
endpoint label: FP EC50

Past entries and their recorded results:
Ac-PQ[MD]ILD[S5]HVRRVWR-NH2 (staple 3-7; not fully specified; also: carbamate staple (-N(R')-C(O)-O-) by ring-closing olefin metathesis) [FP0778c]	500 to 5000 nM
Ac-A[R8]IL[Met(O2)]AHI[MB(5)]RVW-NH2 (staple 2-9) [FP0629c]	500 to 5000 nM
Ac-PQ[MF]ILD[S5]HVRRVWR-NH2 (staple 3-7; also: carbamate staple (-N(R')-C(O)-O-) by ring-closing olefin metathesis) [FP0779c]	500 to 5000 nM

Give the reported value of FP EC50 for this record: AXILDAHIXRVW (not fully specified; Ac-A-R4-I-L-D-A-H-I-MH-R-V-W-NH2; amino staple R4/MH) [FP0509a]
500 to 5000 nM

Entry Ac-PQ[MA]ILD[S5]HVRRVWR-NH2 (staple 3-7) [FP0724c] needs its FP EC50 filled in; supply it.
500 to 5000 nM
